Target: T1, human AGR2 E60A (human, UniProt O95994 21-175)
T1 construct: Whole entry as named; also called monomeric AGR2
T1 chain: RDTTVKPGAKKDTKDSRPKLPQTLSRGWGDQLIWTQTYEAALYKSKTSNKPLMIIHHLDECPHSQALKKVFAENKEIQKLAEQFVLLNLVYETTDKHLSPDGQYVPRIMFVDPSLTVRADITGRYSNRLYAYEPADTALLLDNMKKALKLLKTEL
Assay: ELISA, antigen coated at 1 µg/mL, antibody titrated
Result type: pEC50
Note on units: pEC50 is unitless, being -log10 of a concentration expressed in mol/L.

Example results:
TH-101 IgG1-LALA humanized monoclonal antibody (antibody, V domains shown) VH: QVQLVQSGAEVKKPGASVKVSCKTSGYVFSRSWMNWVRQAPGQGLEWIGWIYPGDGDTNYNGKFKDRVTLTADKSTSTVYMELSSLRSEDTAVYFCARGGYDGSPWLSYWGQGTLVTVSS VL: DIQMTQSPSSLSASVGDRVTITCKASQDINSYLSWFQQKPGKAPKTLIYRANRLVDGVPSRFSGSGSGQDFTLTISSLQPEDIATYYCLQYDEFPFTFGGGTKVEIKR: 8.91
TH-109 IgG1-LALA humanized monoclonal antibody (antibody, V domains shown) VH: QVQLVQSGSELKKPGASVKVSCKTSGYVFSRSWMNWVRQAPGQGLEWIGWIYPGDGDTNYNGKFKDRFVLSADKSVSTVYLQISSLKAEDTAVYFCARGGYDGSPWLSYWGQGTLVTVSS VL: EIVLTQSPATLSLSPGERATLSCKASQDINSYLSWFQQKPGQAPRTLIYRANRLVDGIPARFSGSGSGQDFTLTISSLEPEDFAVYYCLQYDEFPFTFGGGTKVEIKR: 8.45

Now for another entry.
pEC50 reading for TH-104 IgG1-LALA humanized monoclonal antibody (antibody, V domains shown) VH: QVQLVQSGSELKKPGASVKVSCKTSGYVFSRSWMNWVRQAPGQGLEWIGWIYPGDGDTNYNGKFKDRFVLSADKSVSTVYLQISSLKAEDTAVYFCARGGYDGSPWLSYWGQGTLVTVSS VL: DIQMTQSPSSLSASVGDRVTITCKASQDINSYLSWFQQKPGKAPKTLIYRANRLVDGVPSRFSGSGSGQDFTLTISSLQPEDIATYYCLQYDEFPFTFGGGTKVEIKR : 9.04
